- System: RPMI-8226
- assayProcedure: NCI tumour cell line growth inhibition, 48 h
Active and inactive are the calls of the source. No stated cut-off is given here; in the data, active = GI50 up to about 1.1 µM and inactive = higher.
Labels: Y = active, N = inactive

• Nc1nc(Sc2ccc([N+](=O)[O-])c3nonc23)c2nc[nH]c2n1 = Y
• Cc1cccc2cc3ccc4ccccc4c3cc12 = N
• CSc1n/c(=N\c2ccccc2)sn1-c1ccccc1 = N

* * *

- Test system: NCI-H460
- assayProcedure: NCI tumour cell line growth inhibition, 48 h
Active and inactive are the calls of the source. No stated cut-off is given here; in the data, active = GI50 up to about 1.1 µM and inactive = higher.
observable: GI50

- O=C1N2Cc3c4ccc5c3CN3C(=O)N6Cc7c(ccc(c7CN1C6(c1ccccc1)C23c1ccccc1)OCCOCCOc1cc(Br)c(Br)cc1OCCOCCO4)OCCOCCOc1cc(Br)c(Br)cc1OCCOCCO5 (stereo not drawn): > 100 µM (inactive)
- Clc1ccc2c(c1)[nH]c1c2nc2sccn21: > 100 µM (inactive)
- COc1ccc(CCCN2c3ccccc3Sc3ccccc32)cc1: 99.5 µM (inactive)

* * *

- Tested on: NCI-H226
- assayProcedure: NCI tumour cell line growth inhibition, 48 h
The source made the active and inactive calls. No stated cut-off is given here; in the data, active = GI50 up to about 1.1 µM and inactive = higher.
Outcomes: true (1) for active, false (0) for inactive

• COc1cc2cc[n+](C)c(Cc3ccccc3)c2cc1OC = false (0)
• CCOc1ccc(/N=N/c2c(-c3ccccc3)nn(C(=O)CC(=O)Nc3cccc(C)c3)c2-c2ccccc2)cc1 = false (0)
• COc1cc([C@H]2CC(=O)C[C@@H](c3cc(OC)c(OC)c(OC)c3)C23C(=O)c2ccccc2C3=O)cc(OC)c1OC = false (0)
• CC1(C)OC(=C(C#N)C#N)C(C#N)=C1/C=C/c1ccncc1 = false (0)
• O=C(O)C1CCc2ccc3ccccc3c2C1c1cccc2ccccc12 (stereo unspecified) = false (0)
• COc1cccc(N2C(=O)C3c4[nH]c5ccc(C)cc5c4C4CCC(C(C)(C)C)CC4C3C2=O)c1 (stereo unspecified) = false (0)
• CCOC(=O)/C(O)=C/c1cc(OC)cc(=O)o1 = false (0)
• NC(=O)NC(=O)C1CCC(=O)N1S(=O)(=O)c1ccc(Cl)cc1 (stereo unspecified) = false (0)
• O=C1C=CC(=O)N1Nc1ccc([N+](=O)[O-])cc1[N+](=O)[O-] = false (0)
• O=C(NC1=C(Cl)C(=O)c2ccccc2C1=O)C(=O)C(C(=O)c1ccc2ccccc2c1)C1OC(=O)c2ccccc21 (stereo unspecified) = true (1)
• Nc1nc(Sc2ccc([N+](=O)[O-])c3nonc23)c2nc[nH]c2n1 = false (0)
• O=C1CSC2=NC3=C(COC/C3=C\c3ccc(Br)cc3)C(c3ccc(Br)cc3)N12 (stereo unspecified) = false (0)
• Cn1nc2ccc([N+](=O)[O-])c(Cn3nnc4ccccc43)c2n1 = false (0)
• Cc1cccc(O)c1-c1nnc(CCCCCCCCc2nnc(-c3c(C)cccc3O)n2N)n1N = false (0)
• O=C(O)CCC(NC(=O)c1ccc(OCc2nc3cc(C(F)(F)F)ccc3nc2-c2ccccc2)cc1)C(=O)O (stereo unspecified) = false (0)
• CCOP(=O)(OCC)C(C)(CC)NC(=O)C(C(F)(F)F)C(F)(F)F (stereo unspecified) = false (0)
• C[N+](C)(C)CCCSc1nc2ccccc2[nH]1 = false (0)
• Nc1ncc2c(n1)-c1ccccc1OC2 = false (0)
• Nc1nc(N)c2ncn(Cc3c(Cl)cccc3Cl)c2n1 = false (0)
• NC(=O)N/N=C(/CC1C(=O)Oc2ccccc21)c1ccccc1O (stereo unspecified) = false (0)
• Cc1cccc(N2C(=O)C3ON(C(C(N)=O)c4ccccc4)C(c4c5ccccc5c(Cl)c5ccccc45)C3C2=O)c1C (stereo unspecified) = false (0)
• COc1cc2c3c(c1OC)-c1c(ccc4c1OCO4)CC3(C#N)N(C(=O)c1ccccc1)CC2 (stereo unspecified) = false (0)
• CCOC(=O)OC1(c2ccccc2)CCN(C)CC1 = false (0)
• N#CC(N)(C(=O)C(=O)NCCCNC(=O)C(=O)C(N)(C#N)c1ccc(Cl)cc1)c1ccc(Cl)cc1 (stereo unspecified) = false (0)
• CC(C)NC(=O)OCc1c(COC(=O)NC(C)C)c(-c2cc[n+](COC(=O)C3CCCCC3)cc2)n2c1CCC2 = false (0)
• O=NN(CCCl)C(=O)NCc1ccc[n+]([O-])c1 = false (0)
• CCN(CC)C(=S)SNc1ccc(S(N)(=O)=O)cc1 = false (0)
• CC(C)C1COC(C(C)(C)C2=N[C@@H](C(C)C)CO2)=N1 (stereo partly specified) = false (0)
• CC(=O)NC(CCCN)C(=O)NCc1ccccc1 (stereo unspecified) = false (0)
• COc1cc(OC)cc(C(=O)Cc2c(C(=O)c3ccccc3)c3ccccc3n2C(=O)c2ccccc2)c1 = false (0)
• CC(C)C(NCc1c2ccccc2[n+](C)c2ccccc12)C(=O)O (stereo unspecified) = false (0)
